Hey, just so you know, these numbers are from paper PMC11251039.

tested on: P. berghei liver stages; assay: Plasmodium berghei liver stage growth inhibition assay (luminescence, in Huh7 cells); conditions: Plasmodium berghei, Huh-7, 48 h, read-out: IC50, P. berghei liver stage growth inhibition
parameter measured: IC50 (µM)
Give the value, in units of µM, as a plain number.

// worked examples, IC50 included
COc1cc(NC(C)CCCNC(=O)CCC(=O)OC(C)C)c2ncccc2c1 (stereo not shown); 5.7
COc1cc(NC(C)CCCN)c2ncccc2c1 (stereo not shown) [Primaquine, primaquine, reference compound]; 2.9
CC(C)OC(=O)CCC(=O)O[C@H]1CC[C@H]2[C@@H]3CC=C4C[C@@H](O)CC[C@]4(C)[C@H]3CC[C@]12C; 29.2

Next compound, please.
Value of measured IC50 for the entry COc1cc(NC(C)CCCNC(=O)CCC(=O)O[C@H]2CC[C@H]3[C@@H]4CC=C5C[C@@H](O)CC[C@]5(C)[C@H]4CC[C@]23C)c2ncccc2c1 (stereo partly shown) : 0.2

* * *

test system: asexual P. falciparum 3D7 wild-type parasites; assay: P. falciparum asexual growth inhibition assay (SYBR Safe DNA replication); format: cell-based, Plasmodium falciparum; details: Plasmodium falciparum, 3D7; 24 h, starting at ring stages; read-out: IC50, P. falciparum asexual growth inhibition
Parameter: pIC50. Scope: all listed entries.
Lab note — pIC50 values are minus log10 of concentrations in M.

COc1cc(NC(C)CCCN)c2ncccc2c1 (stereo not shown) [Primaquine, primaquine, reference compound]; 4.94

Assay asexual P. falciparum 3D7 wild-type parasites, sample COc1cc(NC(C)CCCNC(=O)CCC(=O)OC(C)C)c2ncccc2c1 (stereo not shown) , pIC50 read: 4.60

* * *

tested on: asexual P. falciparum 3D7 wild-type parasites; experiment: P. falciparum asexual growth inhibition assay (SYBR Safe DNA replication); format: cell-based, Plasmodium falciparum; details: Plasmodium falciparum; 72 h, 3D7 (Susceptible); read-out: IC50, P. falciparum asexual growth inhibition
parameter measured: pIC50
# pIC50 is unitless: minus log10 of the molar concentration; print number only

Item: C[C@H]1[C@H](OC(=O)CCC(=O)O)O[C@@H]2O[C@@]3(C)CC[C@H]4[C@H](C)CC[C@@H]1[C@@]24OO3 [Artesunate, artesunate, reference compound] | pIC50: 8.17

* * *

system: asexual P. falciparum 3D7 wild-type parasites; experiment: P. falciparum asexual growth inhibition assay (SYBR Safe DNA replication); format: cell-based, Plasmodium falciparum; settings: Plasmodium falciparum, 3D7, 72 h, read-out: IC50, P. falciparum asexual growth inhibition
parameter measured: IC50 (nM)
Write it as a number; the unit nM goes unstated.

# IC50 of CCN(CC)CCCC(C)Nc1ccnc2cc(Cl)ccc12 (stereo not shown) [Chloroquine, chloroquine, reference compound] = 9.7

* * *

test system: asexual P. falciparum 3D7 wild-type parasites; test: P. falciparum asexual growth inhibition assay (SYBR Safe DNA replication); type: cell-based, Plasmodium falciparum; conditions: Plasmodium falciparum, 3D7, 72 h, 72 h; read-out: IC50, P. falciparum asexual growth inhibition
parameter measured: pIC50
Note on units: pIC50 is unitless, being -log10 of a concentration expressed in mol/L.

Guide cases for pIC50, answers given:
CC(C)(C)OOCCO[C@H]1CC[C@H]2[C@@H]3CC=C4C[C@@H](O)CC[C@]4(C)[C@H]3CC[C@]12C; 6.32
C[C@]12CC[C@H](O)CC1=CC[C@@H]1[C@@H]2CC[C@]2(C)C(=O)CC[C@@H]12 [DHEA, Dehydroepiandrosterone]; 3.82
COc1cc(NC(C)CCCNC(=O)CCC(=O)O[C@H]2CC[C@H]3[C@@H]4CC=C5C[C@@H](O)CC[C@]5(C)[C@H]4CC[C@]23C)c2ncccc2c1 (stereo partly shown); 5.62

Next up:
Entry CC(C)OC(=O)CCC(=O)O[C@H]1CC[C@H]2[C@@H]3CC=C4C[C@@H](O)CC[C@]4(C)[C@H]3CC[C@]12C — recorded pIC50 = 4.52
